System: U-251
Assay: NCI tumour cell line growth inhibition, 48 h
Active and inactive are the calls of the source. Cut-off read from the data, not from the text of the source: active = GI50 up to about 1.1 µM and inactive = higher.
Classes used: Y for active, N for inactive

>>> class_label("COc1ccc(C2=C(N)c3ncccc3C2=O)cc1")
"N"
>>> class_label("C=C1c2nc3ccccc3n2C=C(c2ccc(Cl)cc2)N1c1ccccc1")
"N"
>>> class_label("COC(=O)CCc1ccc(CCC(=O)OC)cc1")
"N"
>>> class_label("O=C(NCCC(F)(F)C(F)(F)C(F)(F)C(F)(F)F)NC1OC(CO)C(O)C(O)C1O (stereo not drawn)")
"N"
>>> class_label("OCC(O)C(O)C(O)c1nn(-c2ccccc2)c2nc3cc(Cl)c(Cl)cc3nc12 (stereo not drawn)")
"N"
>>> class_label("CCOP(=O)(OCC)C1CCCCOC1=O (stereo not drawn)")
"N"
>>> class_label("CC(=O)OC1C2CCC1C1C2C2(Cl)C(Cl)=C(Cl)C1(Cl)C2(Cl)Cl (stereo not drawn)")
"N"
>>> class_label("c1ccc(NN=C(c2ccccn2)c2ccccn2)nc1")
"Y"
>>> class_label("CN(CCCCN(C)CCc1ccc(Cl)c(Cl)c1)CCCCN1CCCC1")
"Y"
>>> class_label("C/C(=N\\NS(=O)(=O)c1ccc(C)cc1)C(CN1CCOCC1)C(c1ccccc1)c1c(O)c2ccccc2oc1=O (stereo not drawn)")
"N"
>>> class_label("CC(C)(C)OC(=O)NC(Cc1ccc(OCc2ccccc2)cn1)C(=O)O (stereo not drawn)")
"N"
>>> class_label("C/C(=N\\NC(=S)N1CCCCC1)c1nc2cccnc2[nH]1")
"N"
>>> class_label("CCN(CC)CCCC(C)Nc1ccnc2ccc3nn(C)nc3c12 (stereo not drawn)")
"N"
>>> class_label("CC(=O)NC1C(OCc2ccccc2)OC(CO)C(O)C1OCC(=O)N1CCCC1C(=O)N[C@@H](CCC(=O)NCCNCCNc1c2ccccc2nc2cccc([N+](=O)[O-])c12)C(N)=O (stereo partly drawn)")
"N"
>>> class_label("c1ccc(-c2nnn3c2NC2=C(CCCC2)C3c2ccccc2)cc1 (stereo not drawn)")
"N"
>>> class_label("CC(=O)SC(SC(C)=O)SC(C)=O")
"N"
>>> class_label("OC1NC2CC3NC(O)C(O)NC3CC2NC1O (stereo not drawn)")
"N"
>>> class_label("CCN1C[C@]2(C)CC[C@H](OCc3ccccc3)C34C5C[C@@H]6CC[C@](O)(C(C[C@@H]32)C14)C5[C@H]6OCc1ccccc1 (stereo partly drawn)")
"N"
>>> class_label("O=C1c2ccccc2C(=O)N1n1c(Cc2ccccc2)n[nH]c1=O")
"N"
>>> class_label("COC(=O)C1=C(C)NC(=O)N2[C@@H](CCOCc3ccccc3)CC[C@@H]12")
"N"
>>> class_label("CCC(O)(Cc1ccc(OC)cc1)c1ccc(OC)cc1 (stereo not drawn)")
"N"
>>> class_label("CCOC(=O)C(C(=O)OCC)=C1C=C(c2ccccc2)c2ccccc21")
"N"
>>> class_label("COc1cc(CCc2ccc(OCCN(C)C)cc2)cc(OC)c1OC")
"N"

---

Tested on: HOP-18
Assay: NCI tumour cell line growth inhibition, 48 h
Active and inactive are the calls of the source. Rule as the data show it: active = GI50 up to about 1.1 µM and inactive = higher.
measured_quantity: GI50

>>> assay_result("OC12c3ccccc3C1CCCCC2N1CCCC1 (stereo not drawn)")
"> 100 µM (inactive)"
>>> assay_result("C=C1CCCC(C)(C)[C@@H]1CC/C(C)=C/Cn1c2cccc(=O)c-2nc2ccccc21")
"7.1 µM (inactive)"
>>> assay_result("O=C1Nc2cc(Cl)ccc2N=CC1NC(=O)C(c1ccccc1)c1ccccc1Cl (stereo not drawn)")
"27.5 µM (inactive)"
>>> assay_result("Brc1cccc(/C=N/C23CC4CC(CC(C4)C2)C3)c1")
"> 100 µM (inactive)"
>>> assay_result("C/C(=N\\NC(N)=O)C(CN1CCCCC1)C(c1ccccc1)c1c(O)c2ccccc2oc1=O (stereo not drawn)")
"> 100 µM (inactive)"
>>> assay_result("CC(=O)OC1C2CCC1C1C2C2(Cl)C(Cl)=C(Cl)C1(Cl)C2(Cl)Cl (stereo not drawn)")
"18.9 µM (inactive)"
>>> assay_result("Cc1cc2c(cc1C)[n+]([O-])c(C(=O)CC(=O)C(=O)Nc1c(C(C)C)cccc1C(C)C)c(C)[n+]2[O-]")
"> 100 µM (inactive)"
>>> assay_result("Clc1ccc(CCN2CCOCC2)c(Cl)c1")
"> 100 µM (inactive)"
